test_target: UniProt:P13866
Sequence (P13866 whole entry): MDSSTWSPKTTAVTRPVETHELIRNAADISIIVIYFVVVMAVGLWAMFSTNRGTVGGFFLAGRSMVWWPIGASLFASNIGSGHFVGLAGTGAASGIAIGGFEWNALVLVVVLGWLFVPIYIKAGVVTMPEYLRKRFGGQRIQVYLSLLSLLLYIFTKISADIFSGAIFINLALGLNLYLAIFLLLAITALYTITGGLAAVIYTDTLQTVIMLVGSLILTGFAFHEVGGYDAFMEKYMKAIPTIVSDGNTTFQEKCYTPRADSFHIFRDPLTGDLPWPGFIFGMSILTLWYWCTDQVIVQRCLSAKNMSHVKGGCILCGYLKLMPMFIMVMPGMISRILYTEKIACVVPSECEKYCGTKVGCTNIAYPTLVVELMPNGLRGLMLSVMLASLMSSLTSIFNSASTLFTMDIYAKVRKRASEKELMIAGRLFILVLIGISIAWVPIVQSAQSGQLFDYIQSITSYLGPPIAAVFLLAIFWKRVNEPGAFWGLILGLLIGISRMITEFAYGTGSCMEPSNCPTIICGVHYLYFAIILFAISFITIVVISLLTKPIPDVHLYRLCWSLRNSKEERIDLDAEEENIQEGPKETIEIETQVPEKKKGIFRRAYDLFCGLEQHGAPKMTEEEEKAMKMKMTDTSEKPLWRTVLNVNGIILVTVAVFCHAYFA
test_details: SGLT1 inhibitory activity: 14C-AMG uptake into CHO-K1 cell line stably expressing human SGLT1
Format: cell-based
condition_notes: CHO-K1, at 0.1 uM
Protocol: SGLT1 inhibitory activity of a test compound (IC50 value) was calculated based on an amount of intake into a cell of labeled α-methyl-D-glucopyranoside (^14C-AMG) which is transported by SGLT1. 1) Construction of Human SGLT1 Expression Plasmid […]
This listing pairs compounds with measured inhibition at 0.1 µM.
metric: inhibition at 0.1 µM

INSERT INTO assay_data (compound, reported_value) VALUES
  ('CCC1C(=O)NCC1C(=O)Nc1cc(-c2cccc(OC(F)(F)F)c2)n(-c2ccccc2)n1 (stereo not shown)', '42%'),
  ('CC(C)(C)OC(=O)c1cccc(-c2cc(NC(=O)[C@@H]3CNC(=O)C3)nn2-c2ccccc2)c1', '48%'),
  ('CC(C)N(C)C(=O)c1cccc(-c2cc(NC(=O)[C@@H]3CNC(=O)C3)nn2-c2ccccc2)c1', '14%'),
  ('O=C1C[C@H](C(=O)Nc2cc(-c3cccc(CO[C@@H]4CCCOC4)c3)n(-c3ccccc3)n2)CN1', '33%'),
  ('C[C@@H](OCc1cc(F)cc(-c2cc(NC(=O)[C@H]3CCC(=O)N3)nn2-c2ccccc2)c1)C(F)(F)F', '32%'),
  ('CC(C)(C)S(=O)(=O)c1cccc(-c2cc(NC(=O)[C@@H]3CNC(=O)C3)nn2-c2ccccc2)c1', '29%'),
  ('CCC(F)(F)c1cccc(-c2cc(NC(=O)[C@H]3CNC(=O)C3)nn2CCN2CCCC2)c1', '4%');
